This collection of values is drawn from patent US20180028477A1.

Here the recorded Clhp (hepatic clearance) is given for each entry.
assay: Metabolic stability in human liver microsomes fortified with NADPH (Example 11); assay type: in vitro ADME; conditions: human liver microsomes
Supply the numeric figure in mL/min/kg, leaving out any unit text.

Look over these answered cases.
CC(/C=C/C(=O)NO)=C\[C@@H](C)C(=O)c1ccc(N(C)C)cc1 [TSA, Trichostatin A, reference compound]
6.30
Nc1ccccc1NC(=O)CCCCCCC(=O)Nc1ccccc1 [BML-210, reference compound]
7.57
Nc1ccccc1NC(=O)CCCCCC(=O)Nc1ccc(Br)cc1 [7MI]
2.45

Would you kindly look at the next entry?
Entry Nc1ccccc1NC(=O)CCCCCC(=O)Nc1cccc(Br)c1 [8MI] ; Clhp (hepatic clearance) = 3.85
